Data provenance is PubChem BioAssay AID504339.

# target_of_assay: Lysine-specific demethylase 4A (Homo sapiens) (UniProt O75164)
# Sequence (O75164 whole entry, looked up, the tested form may be a part): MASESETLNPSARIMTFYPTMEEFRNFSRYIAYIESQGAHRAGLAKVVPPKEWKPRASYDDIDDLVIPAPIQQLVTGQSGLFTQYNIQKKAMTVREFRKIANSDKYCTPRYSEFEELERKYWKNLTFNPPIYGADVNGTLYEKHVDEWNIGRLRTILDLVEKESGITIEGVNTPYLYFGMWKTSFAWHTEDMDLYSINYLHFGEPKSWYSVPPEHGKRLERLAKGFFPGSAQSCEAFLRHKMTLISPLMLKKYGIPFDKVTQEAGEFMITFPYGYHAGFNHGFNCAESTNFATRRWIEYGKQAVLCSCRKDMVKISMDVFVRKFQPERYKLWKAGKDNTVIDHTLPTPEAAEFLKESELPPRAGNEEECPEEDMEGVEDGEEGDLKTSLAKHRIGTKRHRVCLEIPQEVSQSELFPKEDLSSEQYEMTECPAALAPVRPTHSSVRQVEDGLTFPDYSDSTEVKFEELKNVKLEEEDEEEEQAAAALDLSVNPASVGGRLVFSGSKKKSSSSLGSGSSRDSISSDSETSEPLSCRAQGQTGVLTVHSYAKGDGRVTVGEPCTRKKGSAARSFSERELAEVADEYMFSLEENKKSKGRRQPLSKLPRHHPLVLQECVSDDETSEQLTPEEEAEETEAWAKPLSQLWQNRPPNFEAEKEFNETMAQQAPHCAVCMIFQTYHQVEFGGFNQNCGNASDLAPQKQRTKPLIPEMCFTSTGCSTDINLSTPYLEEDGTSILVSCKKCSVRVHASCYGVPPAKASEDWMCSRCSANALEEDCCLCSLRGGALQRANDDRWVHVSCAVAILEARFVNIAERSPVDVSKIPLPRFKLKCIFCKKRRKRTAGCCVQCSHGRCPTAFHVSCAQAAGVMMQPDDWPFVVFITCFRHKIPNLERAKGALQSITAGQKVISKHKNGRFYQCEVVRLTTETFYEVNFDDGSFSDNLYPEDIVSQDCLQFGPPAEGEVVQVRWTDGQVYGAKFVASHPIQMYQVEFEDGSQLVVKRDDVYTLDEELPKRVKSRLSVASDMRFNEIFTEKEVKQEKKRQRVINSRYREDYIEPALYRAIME
# measurement_notes: qHTS Assay for Inhibitors of JMJD2A-Tudor Domain; note: nearly all actives have a fitted effect of over 50% in size
# test_conditions: AlphaScreen JMJD2A-Tudor / H3K4me3 peptide binding; series mostly up to 114 µM
Out of some 390,000 compounds screened, about 17,000 (4.4%) were called active. Another 8% or so got no clear call; they are omitted. Calls come from the whole dose curve; as a rule, active = well fitted inhibition curve with a large enough effect; inconclusive = small, poorly fitted or top-dose-only effect; inactive = no such curve, though single readings can be large or run the other way. Shown is part of a subset that was picked to be rich in actives.
Labels: true for active, false for inactive

# molecule, class_assignment
records = [
    ("O=C(CSc1ncn[nH]1)Nc1nsc(-c2ccccc2)n1", "false"),
    ("Cc1ccc2c(c1)N(C(=O)Nc1ccc(Br)cc1F)CCO2", "false"),
    ("COc1cccc(NC(=O)CN2C(=O)c3ccccc3Sc3ncccc32)c1", "false"),
    ("Cn1nnc2c(N3CCN(c4ccccc4)CC3)ncnc21", "false"),
    ("COc1ccc(N2CCN(S(=O)(=O)CCNC(=O)C(c3ccccc3)c3ccccc3)CC2)cc1", "false"),
    ("CCCCN1C(=O)/C(=C2/C=CC=CN2C)SC1=S", "true"),
    ("O=C(NCC(c1ccc2c(c1)OCO2)N1CCN(c2ccccc2)CC1)C(=O)Nc1ccccc1F (centres undefined)", "false"),
    ("CCn1c(=S)[nH]c2cc(S(=O)(=O)N3CCOCC3)ccc21", "true"),
    ("CCOc1cccc(/C(O)=C2/C(=O)C(=O)N(CCOC)C2c2ccncc2)c1 (centres undefined)", "false"),
]
